Every entry's value here was drawn from patent US20230310435A1.

Assay: Plasma pharmacokinetics after IV or PO administration (Study 16009-12001)
Format: in vivo, male Balb/c mice
Conditions: Balb/c, mouse, PO 10 mg/kg, male mice, read-out: Cmax (peak concentration)
Measured Quantity: Cmax

[in] Endpoint output: Cmax of N=C(N)NCCCCC(=O)Nc1cc(C(F)(F)F)cc(NC(=O)c2cc(C(=O)Nc3cc(C(F)(F)F)cc(NC(=O)CCCCNC(=N)N)c3O[C@@H]3CCNC3)ncn2)c1O[C@@H]1CCNC1 . Value?
[out] 33.7 ng/mL

---

Test: Plasma pharmacokinetics after IV or PO administration (Study 16009-12001)
Format: in vivo, male Balb/c mice
Conditions: Balb/c, mouse, PO 10 mg/kg, male mice
Measured Quantity: Tmax (h)
A number alone suffices; assume h.

[in] Endpoint output: Tmax of N=C(N)NCCCCC(=O)Nc1cc(C(F)(F)F)cc(NC(=O)c2cc(C(=O)Nc3cc(C(F)(F)F)cc(NC(=O)CCCCNC(=N)N)c3O[C@@H]3CCNC3)ncn2)c1O[C@@H]1CCNC1 [PMX-30063] . Value?
[out] 2

---

Experiment: in vivo
Design: species or system male Balb/c mice
Settings: male, Balb/c, mouse, po, 10 mg/kg
Measured Quantity: Kp

[in] // Kp lookup, key: N=C(N)NCCCCC(=O)Nc1cc(C(F)(F)F)cc(NC(=O)c2cc(C(=O)Nc3cc(C(F)(F)F)cc(NC(=O)CCCCNC(=N)N)c3O[C@@H]3CCNC3)ncn2)c1O[C@@H]1CCNC1
[out] 2240 to 4320

---

Assay: Plasma pharmacokinetics after IV or PO administration (Study 16009-12001)
Format: in vivo, male Balb/c mice
Details: Balb/c, mouse, IV 5 mg/kg, male mice
Protocol: Method for FIG. 11. […] The test article, PMX-30063, was corrected for salt form but no adjustment was made for purity. […] The resulting formulation was clear colorless solution (pH 7) and was stored at room temperature until administered. […] The pharmacokinetic (PK) analysis were conducted by Medicilon Preclinical Research (Shanghai) LLC. The PK parameters were determined by the Study Director for the test article from mean concentration-time data in the test species. […]
Measured Quantity: AUC(0-t)
// unit must come after the numeric part

[in] So what's the measured AUC(0-t) for this one? N=C(N)NCCCCC(=O)Nc1cc(C(F)(F)F)cc(NC(=O)c2cc(C(=O)Nc3cc(C(F)(F)F)cc(NC(=O)CCCCNC(=N)N)c3O[C@@H]3CCNC3)ncn2)c1O[C@@H]1CCNC1
[out] 97700 ng·h/mL

---

Test: Plasma pharmacokinetics after IV or PO administration (Study 16009-12001)
Assay type: in vivo, male Balb/c mice
Conditions: Balb/c, mouse, IV 5 mg/kg, male mice, read-out: Cmax (peak concentration)
Measured Quantity: Cmax (ng/mL)
Numeric only. Scale: ng/mL

[in] Query: Cmax; subject: N=C(N)NCCCCC(=O)Nc1cc(C(F)(F)F)cc(NC(=O)c2cc(C(=O)Nc3cc(C(F)(F)F)cc(NC(=O)CCCCNC(=N)N)c3O[C@@H]3CCNC3)ncn2)c1O[C@@H]1CCNC1
[out] 48400

---

Test system: LPS-induced MCP-1 release, NR8383 cells
Assay: LPS-induced MCP-1 release in NR8383 rat macrophages (ELISA)
Format: cell-based
Conditions: Rattus norvegicus, Macrophage; NR8383 cells, ELISA; 45 min pretreatment, 8-hour LPS; read-out: IC50, inhibition of LPS-induced MCP-1 release
Measured Quantity: IC50

[in] State its IC50 on LPS-induced MCP-1 release, NR8383 cells: N=C(N)NCCCCC(=O)Nc1cc(C(F)(F)F)cc(NC(=O)c2cc(C(=O)Nc3cc(C(F)(F)F)cc(NC(=O)CCCCNC(=N)N)c3O[C@@H]3CCNC3)ncn2)c1O[C@@H]1CCNC1
[out] 0.75 µM
